Target: β-catenin (Homo sapiens, UniProt P35222)
Sequence (P35222 1-781): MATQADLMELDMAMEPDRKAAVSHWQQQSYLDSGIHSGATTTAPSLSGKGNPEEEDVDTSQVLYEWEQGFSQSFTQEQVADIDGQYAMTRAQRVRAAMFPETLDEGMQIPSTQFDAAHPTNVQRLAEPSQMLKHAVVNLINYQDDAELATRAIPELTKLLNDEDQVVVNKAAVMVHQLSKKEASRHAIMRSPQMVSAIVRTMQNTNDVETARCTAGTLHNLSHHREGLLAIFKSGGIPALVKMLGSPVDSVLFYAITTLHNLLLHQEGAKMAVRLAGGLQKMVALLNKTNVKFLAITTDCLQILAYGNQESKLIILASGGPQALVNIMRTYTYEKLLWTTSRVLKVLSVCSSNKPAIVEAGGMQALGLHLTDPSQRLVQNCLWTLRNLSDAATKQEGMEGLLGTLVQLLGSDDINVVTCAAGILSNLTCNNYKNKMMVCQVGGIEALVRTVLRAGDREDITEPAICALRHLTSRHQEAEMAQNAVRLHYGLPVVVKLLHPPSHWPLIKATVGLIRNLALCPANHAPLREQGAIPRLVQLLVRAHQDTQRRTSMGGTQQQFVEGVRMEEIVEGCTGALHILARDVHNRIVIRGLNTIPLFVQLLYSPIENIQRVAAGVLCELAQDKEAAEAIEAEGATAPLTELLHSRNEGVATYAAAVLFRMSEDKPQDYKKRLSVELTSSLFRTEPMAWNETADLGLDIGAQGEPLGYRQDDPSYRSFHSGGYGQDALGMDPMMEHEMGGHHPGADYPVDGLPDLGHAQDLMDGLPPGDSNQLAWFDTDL
Experiment: KD50 measurement using competitive fluorescence polarization (FP) with labelled TCF4
Format: binding
Details: fluorescence polarization, β-catenin; read-out: β-Cat FP KD
Description: Fluorescence polarization (FP) is another method used to analyze protein-ligand interactions. This methodology measures the change in fluorescence light emitted by a labelled compound free vs. conjugated to another compound in solution. Upon binding of the fluorescent molecule to a complex, polarization increases because of limited rotation of the fluorescent tracer. […] Data were analyzed and plotted in Microsoft Excel (Microsoft, Redmond, WA). […]
Where a SMILES comes first, the peptide text is derived from it.
assayEndpoint: Kd

Record excerpt, results attached:
CC[C@H](C)[C@H](NC(=O)[C@H](CC(C)C)NC(=O)[C@H](Cc1ccccc1)NC(=O)[C@H](C)NC(=O)[C@@H](N)CCSC)C(=O)N[C@@H](CO)C(=O)N[C@@H](Cc1ccccc1)C(=O)N[C@@H](Cc1c[nH]c2ccccc12)C(=O)NCC(=O)O [compound 210] (H-MAFLISFWG-OH) ... 1 to 10 µM
CC[C@H](C)[C@H](NC(=O)[C@H](CC(C)C)NC(=O)[C@H](Cc1ccccc1)NC(=O)[C@H](Cc1c[nH]c2ccccc12)NC(=O)[C@H](Cc1c[nH]cn1)NC(=O)[C@H](CCCNC(=N)N)NC(=O)[C@H](CO)NC(=O)[C@@H](N)CCSC)C(=O)N[C@@H](CO)C(=O)N[C@@H](Cc1ccccc1)C(=O)N[C@@H](Cc1c[nH]c2ccccc12)C(N)=O [compound 88] (H-MSRHWFLISFW-NH2) ... > 30 µM
CC[C@H](C)[C@H](NC(=O)[C@H](CC(C)C)NC(=O)[C@H](C)NC(=O)[C@H](Cc1c[nH]c2ccccc12)NC(=O)[C@@H](N)CCSC)C(=O)N[C@@H](CO)C(=O)N[C@@H](Cc1ccccc1)C(=O)N[C@@H](Cc1c[nH]c2ccccc12)C(=O)NCC(=O)O [compound 156] (H-MWALISFWG-OH) ... > 30 µM

Reported Kd ( CC[C@H](C)[C@@H]1NC(=O)[C@H](CC(C)C)NC(=O)[C@H](Cc2ccccc2)NC(=O)[C@H](Cc2c[nH]c3ccccc23)NC(=O)[C@@H](N)CCCCNC(=O)CC[C@@H](C(=O)NCC(=O)O)NC(=O)[C@H](Cc2ccccc2)NC(=O)[C@H](CO)NC1=O [compound 227] (HELM PEPTIDE1{K.W.F.L.I.S.F.E.G}$PEPTIDE1,PEPTIDE1,1:R3-8:R3$$$V2.0) ) = 1 to 10 µM

Form field Kd, entry CC[C@H](C)[C@H](NC(=O)[C@H](CC(C)C)NC(=O)[C@H](Cc1ccccc1)NC(=O)[C@H](Cc1c[nH]c2ccccc12)NC(=O)[C@H](CCSC)NC(=O)[C@H](CCCNC(=N)N)NC(=O)[C@H](CO)NC(=O)[C@@H](N)Cc1ccc(O)cc1)C(=O)N[C@@H](CO)C(=O)N[C@@H](Cc1ccccc1)C(=O)N[C@@H](Cc1c[nH]c2ccccc12)C(N)=O [compound 82] (H-YSRMWFLISFW-NH2) : > 30 µM

Data point: CC[C@H](C)[C@@H]1NC(=O)[C@H](CC(C)C)NC(=O)[C@H](Cc2ccc(O)cc2)NC(=O)[C@H](Cc2c[nH]c3ccccc23)NC(=O)[C@H](CCSC)NC(=O)[C@H](CCCNC(=N)N)NC(=O)[C@H](CO)NC(=O)[C@@H](N)CCCNC(=O)[C@H](Cc2c[nH]c3ccccc23)NC(=O)[C@H](Cc2ccccc2)NC(=O)[C@H](CO)NC1=O [compound 277] (HELM PEPTIDE1{[Orn].S.R.M.W.Y.L.I.S.F.W}$PEPTIDE1,PEPTIDE1,1:R3-11:R2$$$V2.0) ; Kd = > 30 µM
